Cited source for all entries: ChEMBL document CHEMBL6087406

biological target: Liver carboxylesterase (Sus scrofa, UniProt Q29550); assay: Inhibition of porcine liver carboxylesterase using 4-nitrophenylacetate as substrate assessed as release of 4-nitrophenol at 20 uM by spectrophotometric analysis relative to control; settings: pig, porcine liver carboxylesterase (isolated enzyme), probe 4-nitrophenylacetate
RECORDED_METRIC: inhibition at 20 µM (%)
Quick note: give the figure in %, leave out the unit.

inhibition at 20 µM lookup needed for CC(=O)/C(=N/Nc1ccc(C(=O)O)cc1)C(=O)O , thanks. 18.6

What value of measured inhibition at 20 µM is listed for CC(=O)/C(=N/Nc1ccccc1)C(=O)O ? 17.9

inhibition at 20 µM lookup needed for CCOC(=O)c1ccc(N/N=C(/C(C)=O)C(=O)O)cc1 , thanks. 16.1

Give the measured inhibition at 20 µM of Cc1ccc(N/N=C(\C(=O)O)C(=O)C(F)F)cc1 . 23.8

---

Field: IC50. Provide a value for each of the compounds that follow.
The reply should be a number in nM, with the unit left off.

Report IC50 for Cc1ccc(N/N=C(\C(=O)O)C(=O)C(F)(F)F)cc1 tested on Cocaine esterase (Homo sapiens). 97

Which measured IC50 belongs to Cc1ccc(N/N=C(\C(=O)O)C(=O)C(F)(F)C(F)(F)C(F)(F)C(F)(F)F)cc1 , tested on Cocaine esterase (Homo sapiens)? 109

---

Target: Liver carboxylesterase (Sus scrofa, UniProt Q29550)
Sequence (Q29550 whole entry): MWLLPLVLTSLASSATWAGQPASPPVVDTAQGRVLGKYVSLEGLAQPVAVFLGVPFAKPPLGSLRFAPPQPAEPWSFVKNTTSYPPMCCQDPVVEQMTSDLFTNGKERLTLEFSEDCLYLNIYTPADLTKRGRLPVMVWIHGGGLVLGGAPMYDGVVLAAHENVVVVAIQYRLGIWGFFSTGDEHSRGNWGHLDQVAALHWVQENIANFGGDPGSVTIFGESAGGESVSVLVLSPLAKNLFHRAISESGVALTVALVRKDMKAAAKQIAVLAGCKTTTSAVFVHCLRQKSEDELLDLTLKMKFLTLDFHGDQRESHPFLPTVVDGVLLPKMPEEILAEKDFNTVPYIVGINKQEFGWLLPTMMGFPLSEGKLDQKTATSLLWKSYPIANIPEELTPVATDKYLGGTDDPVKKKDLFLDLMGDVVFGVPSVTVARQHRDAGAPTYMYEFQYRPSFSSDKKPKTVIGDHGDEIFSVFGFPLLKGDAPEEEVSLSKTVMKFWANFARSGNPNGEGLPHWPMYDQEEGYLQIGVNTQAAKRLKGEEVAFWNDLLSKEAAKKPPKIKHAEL
pIC50: −log10 of the molar value.
Values of pIC50 greater than or equal to 7 map to condition met; values below map to condition not met.

Decide: pIC50 of Cc1ccc(N/N=C(\C(=O)O)C(=O)C(F)(F)C(F)F)cc1 >= 7? condition not met

Check this compound for pIC50 at or above 7: O=C(O)/C(=N\Nc1ccccc1)C(=O)C(F)(F)F condition not met

Determine whether this compound has pIC50 no lower than 7: COc1ccc(N/N=C(\C(=O)O)C(=O)C(F)(F)C(F)F)cc1 condition not met

Identify whether the reported pIC50 of the following compound is 7 or greater: Cc1ccc(N/N=C(\C(=O)O)C(=O)C(F)(F)C(F)(F)C(F)(F)F)cc1 condition met

Does the compound Cc1ccc(N/N=C(\C(=O)O)C(=O)C(F)(F)C(F)(F)C(F)(F)C(F)(F)F)cc1 have recorded pIC50 that is 7 or more? condition met

In plain terms: is recorded pIC50 at least 7 for COc1ccc(N/N=C(\C(=O)O)C(=O)C(F)(F)C(F)(F)C(F)(F)C(F)(F)F)cc1 ? condition not met

---

Target: Liver carboxylesterase 1 (Homo sapiens, UniProt P23141)
Sequence (P23141 whole entry): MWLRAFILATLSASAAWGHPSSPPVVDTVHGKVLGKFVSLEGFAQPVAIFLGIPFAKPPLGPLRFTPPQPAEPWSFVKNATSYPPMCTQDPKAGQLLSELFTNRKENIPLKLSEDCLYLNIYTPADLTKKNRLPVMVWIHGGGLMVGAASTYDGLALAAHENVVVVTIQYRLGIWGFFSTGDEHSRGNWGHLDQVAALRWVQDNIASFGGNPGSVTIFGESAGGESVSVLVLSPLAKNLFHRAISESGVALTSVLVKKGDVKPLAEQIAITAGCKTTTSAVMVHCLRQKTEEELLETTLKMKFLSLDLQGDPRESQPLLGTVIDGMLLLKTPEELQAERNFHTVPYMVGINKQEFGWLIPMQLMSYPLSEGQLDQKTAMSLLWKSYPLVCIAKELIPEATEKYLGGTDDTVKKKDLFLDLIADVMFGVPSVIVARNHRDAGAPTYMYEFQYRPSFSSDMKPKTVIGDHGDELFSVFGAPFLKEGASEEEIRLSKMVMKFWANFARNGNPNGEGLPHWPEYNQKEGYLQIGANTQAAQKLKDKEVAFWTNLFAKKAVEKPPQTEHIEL
RECORDED_METRIC: IC50 (nM)
Write it as a number; the unit nM goes unstated.

// fetch Liver carboxylesterase 1 (Homo sapiens, UniProt P23141) IC50 for Cc1ccc(N/N=C(\C(=O)O)C(=O)C(F)(F)C(F)(F)C(F)(F)C(F)(F)F)cc1 102

---

target: Cholinesterase (Equus caballus); test: Inhibition of equine serum butyrylcholinesterase using butyrylthiocholine as substrate at 20 uM by Ellman's method relative to control
Activity calls are given as the source filed them. The calls are words filed in the database; no cut-off is given here.
RECORDED_METRIC: inhibition

Would you please look over these solved cases?
> print(dat)
                                     smiles  observed.result
1    CCOC(=O)c1ccc(N/N=C(/C(C)=O)C(=O)O)cc1         inactive
2      CC(=O)/C(=N/Nc1ccc(C(=O)O)cc1)C(=O)O             8.2%
3  CCOC(=O)c1ccccc1N/N=C(\C(=O)O)C(=O)C(F)(F)C(F)(F)C(F)(F)C(F)(F)F            13.7%
4  COc1ccc(N/N=C(\C(=O)O)C(=O)C(F)(F)C(F)F)cc1             3.5%
5       O=C(O)/C(=N\Nc1ccccc1)C(=O)C(F)(F)F               4%
6  O=[N+]([O-])c1ccc(OP(=O)(O)Oc2ccc([N+](=O)[O-])cc2)cc1         inactive

Please report the recorded inhibition for Cc1ccc(N/N=C(\C(=O)O)C(=O)C(F)(F)C(F)(F)C(F)(F)C(F)(F)F)cc1 . inactive

What measured inhibition goes with Cc1ccc(N/N=C(\C(=O)O)C(=O)C(F)(F)C(F)(F)C(F)(F)F)cc1 ? 11.6%

May I ask what inhibition has been recorded for Cc1ccc(N/N=C(\C(=O)O)C(=O)C(F)(F)C(F)F)cc1 ? 5.7%

Give its inhibition value. Item: Cc1ccc(N/N=C(\C(=O)O)C(=O)C(F)F)cc1 inactive

Sample COc1ccc(N/N=C(\C(=O)O)C(=O)C(F)(F)C(F)(F)C(F)(F)F)cc1 — what was its inhibition? 13.4%

Entry CC(=O)/C(=N/Nc1ccccc1)C(=O)O : reported inhibition = ? inactive

Can you share its inhibition? I mean this molecule: Cc1ccc(N/N=C(\C(=O)O)C(=O)C(F)(F)C(F)(F)F)cc1 15.5%

Requested field: inhibition. Item: COc1ccc(N/N=C(\C(=O)O)C(=O)C(F)(F)C(F)(F)C(F)(F)C(F)(F)F)cc1 19.9%

---

Can you tell me Activity for the items I'm about to list?
test: Antioxidant activity assessed as ABTS radical scavenging activity by measuring trolox equivalent antioxidant capacity after 1 hrs by UV/Vis microplate spectrophotometric analysis; format: functional
Enter the number alone.

I would be grateful if you could share the reported Activity for Cc1ccc(N/N=C(\C(=O)O)C(=O)C(F)(F)C(F)(F)F)cc1 . 1.45

Query: Activity; subject: COc1ccc(N/N=C(\C(=O)O)C(=O)C(F)(F)C(F)F)cc1 1.8

Name the reported Activity value associated with the compound Cc1ccc(N/N=C(\C(=O)O)C(=O)C(F)F)cc1 1.67

Entry Cc1c(C)c2c(c(C)c1O)CCC(C)(C(=O)O)O2 (centres undefined) : reported Activity = ? 1

Quick check: Activity of CCOC(=O)c1ccccc1N/N=C(\C(=O)O)C(=O)C(F)(F)C(F)(F)C(F)(F)C(F)(F)F ? 0.02

What value of Activity has been reported for the following compound? Cc1ccc(N/N=C(\C(=O)O)C(=O)C(F)(F)C(F)F)cc1 1.7

Given the compound COc1ccc(N/N=C(\C(=O)O)C(=O)C(F)(F)C(F)(F)C(F)(F)C(F)(F)F)cc1 , what is its reported Activity? 1.9

What measured Activity goes with O=C(O)/C(=N\Nc1ccccc1)C(=O)C(F)(F)F ? 1.6

Any idea what its Activity is? The compound is CCOC(=O)c1ccc(N/N=C(/C(C)=O)C(=O)O)cc1 1.36

Given the entry CC(=O)/C(=N/Nc1ccccc1)C(=O)O , report its measured Activity. 1.6

Reported Activity, compound COc1ccc(N/N=C(\C(=O)O)C(=O)C(F)(F)C(F)(F)C(F)(F)F)cc1 : ____ 2.1

Which value of Activity has been reported for Cc1ccc(N/N=C(\C(=O)O)C(=O)C(F)(F)C(F)(F)C(F)(F)C(F)(F)F)cc1 in the records? 1.37

Consider the compound shown here: Cc1ccc(N/N=C(\C(=O)O)C(=O)C(F)(F)C(F)(F)C(F)(F)F)cc1 What is its recorded Activity? 1.97

Look up Activity for this compound: CC(=O)/C(=N/Nc1ccc(C(=O)O)cc1)C(=O)O 1.25
